Target: Avi-KRAS G12R (1-169) GppNHp/RAF1 RBD-3xFLAG (52-151) (Homo sapiens, UniProt P01116, G12R)
Construct: Avi-KRAS G12R (1-169)
Sequence (P01116 1-169 isoform P01116-2 G12R): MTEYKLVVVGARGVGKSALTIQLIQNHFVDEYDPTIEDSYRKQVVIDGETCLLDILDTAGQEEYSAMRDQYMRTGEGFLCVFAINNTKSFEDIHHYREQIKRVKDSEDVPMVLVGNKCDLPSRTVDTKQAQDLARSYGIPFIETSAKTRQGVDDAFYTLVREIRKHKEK
Assay: Raf1-KRAS G12R-GppNHP disruption HTRF assay (Biological Example 1)
Type: binding
Details: KRAS G12R, GppNHp-loaded; Table 11
PARAMETER: IC50

MOLECULE	RESULT
CN(c1nc(OC[C@@]23CCCN2C[C@H](F)C3)nc2c(F)c(-c3ccc(F)c4sc(N)c(C#N)c34)c(C(F)(F)F)cc12)[C@@H]1CCN(C(=O)CC#N)C1 (atropisomer, axis not shown)	0.1 to 1 µM
CCN(CC)c1nc(OC[C@@]23CCCN2C[C@H](F)C3)nc2c(F)c(-c3ccc(F)c4sc(N)c(C#N)c34)c(C(F)(F)F)cc12	0.1 to 1 µM
N#Cc1c(N)sc2c(F)ccc(-c3c(C(F)(F)F)cc4c(N5CCC(O)CC5)nc(OC[C@@]56CCCN5C[C@H](F)C6)nc4c3F)c12	0.1 to 1 µM
CCN(C)c1nc(OC[C@@]23CCCN2C[C@H](F)C3)nc2c(F)c(-c3ccc(F)c4sc(N)c(C#N)c34)c(C(F)(F)F)cc12 [Compound 81]	< 0.1 µM
N#Cc1c(N)sc2c(F)ccc(-c3c(C(F)(F)F)cc4c(N5C6COCC5C6)nc(OC[C@@]56CCCN5C[C@H](F)C6)nc4c3F)c12	0.1 to 1 µM
N#Cc1c(N)sc2c(F)ccc(-c3c(C(F)(F)F)cc4c(N5CCC[C@@H](O)C5)nc(OC[C@@]56CCCN5C[C@H](F)C6)nc4c3F)c12	0.1 to 1 µM
